# STUDY TARGET: C-X-C chemokine receptor type 2 (Homo sapiens, UniProt P25025)
# Sequence (P25025 whole entry): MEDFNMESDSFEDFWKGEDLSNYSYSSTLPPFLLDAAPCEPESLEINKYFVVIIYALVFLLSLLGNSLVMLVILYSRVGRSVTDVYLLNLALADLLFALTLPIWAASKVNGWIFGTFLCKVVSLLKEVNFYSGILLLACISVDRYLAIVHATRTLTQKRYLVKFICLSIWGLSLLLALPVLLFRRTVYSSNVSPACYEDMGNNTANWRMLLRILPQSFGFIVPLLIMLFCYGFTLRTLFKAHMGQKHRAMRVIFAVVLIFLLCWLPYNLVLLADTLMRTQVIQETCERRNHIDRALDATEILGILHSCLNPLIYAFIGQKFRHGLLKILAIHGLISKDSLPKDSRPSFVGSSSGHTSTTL
# ASSAY METHOD TEXT: Displacement of [125I]IL-8 from CHO cell membranes expressing human […] chemokine receptor 2 (CXCR2 filter mat binding assay)

{"STRUCTURE SMILES STRING": "O=C(O)CSc1ccc(C(=O)Nc2ccc(F)cc2)cn1", "IC50": "1200 nM"}
